assayed-target: ZAP70 (Homo sapiens)
Construct: made in house; host or cells: E. coli BL21-derived host (T7 phage) or HEK-293
Sequence (P43403 whole entry): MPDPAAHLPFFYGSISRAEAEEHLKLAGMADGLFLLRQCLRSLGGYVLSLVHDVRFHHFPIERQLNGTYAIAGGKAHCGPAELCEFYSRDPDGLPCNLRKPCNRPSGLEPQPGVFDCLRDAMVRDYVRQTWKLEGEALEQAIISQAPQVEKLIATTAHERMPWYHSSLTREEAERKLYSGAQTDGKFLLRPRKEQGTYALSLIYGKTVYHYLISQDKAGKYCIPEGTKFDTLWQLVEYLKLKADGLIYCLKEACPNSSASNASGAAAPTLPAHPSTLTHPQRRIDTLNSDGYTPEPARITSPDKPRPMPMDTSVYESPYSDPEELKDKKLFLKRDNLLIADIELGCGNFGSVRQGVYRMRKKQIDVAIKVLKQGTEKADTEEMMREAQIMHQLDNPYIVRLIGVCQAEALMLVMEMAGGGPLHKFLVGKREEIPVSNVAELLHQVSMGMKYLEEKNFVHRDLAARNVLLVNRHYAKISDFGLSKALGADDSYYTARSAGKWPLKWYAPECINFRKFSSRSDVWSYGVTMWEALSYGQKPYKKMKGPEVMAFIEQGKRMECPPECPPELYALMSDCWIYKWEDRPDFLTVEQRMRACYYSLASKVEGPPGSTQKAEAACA
test-name: Kinase binding assay (Kd)
pKd: −log10 of the molar value.
reported-metric: pKd

So for CCN1CCN(c2ccc(Nc3ncnc(N(C)C(=O)Nc4c(Cl)c(OC)c(Cl)c(OC)c4Cl)n3)cc2)CC1 , the logged pKd turned out to be < 5.00

* * *

Tested on: PLC/PRF/5
test-name: MTT assay, cell viability
Type: cell-based
reported-conditions: PLC5, 5 uM, 72 hours
reported-metric: Viability (% of control cells) PLC5 (5 uM) Mean

So for COc1ccc(-c2cc(N(C)C(=O)Nc3c(Cl)c(OC)c(Cl)c(OC)c3Cl)ncn2)cc1 , the logged Viability (% of control cells) PLC5 (5 uM) Mean turned out to be 91.3 % of control cells

So for CCN1CCN(c2ccc(-c3cc(N(C)C(=O)Nc4c(Cl)c(OC)c(Cl)c(OC)c4Cl)ncn3)cc2)CC1 , the logged Viability (% of control cells) PLC5 (5 uM) Mean turned out to be 78.3 % of control cells

So for COc1c(Cl)c(NC(=O)N(C)c2cc(-c3ccc(Cl)cc3)ncn2)c(Cl)c(OC)c1Cl , the logged Viability (% of control cells) PLC5 (5 uM) Mean turned out to be 44.4 % of control cells

So for CCN1CCN(c2ccc(Nc3cc(N(C)C(=O)Nc4c(Cl)c(OC)c(Cl)c(OC)c4Cl)ncn3)cc2)CC1 , the logged Viability (% of control cells) PLC5 (5 uM) Mean turned out to be 72.6 % of control cells

So for CCN1CCN(c2ccc(Nc3cc(N(C)C(=O)Nc4c(Cl)c(OC)c(Cl)c(OC)c4Cl)nc(-c4ccccc4)n3)cc2)CC1 , the logged Viability (% of control cells) PLC5 (5 uM) Mean turned out to be 88.0 % of control cells

So for COc1c(Cl)c(NC(=O)N(C)c2cc(-c3ccc(F)cc3)ncn2)c(Cl)c(OC)c1Cl , the logged Viability (% of control cells) PLC5 (5 uM) Mean turned out to be 55.3 % of control cells

So for CCN1CCN(c2ccc(Nc3nc(Cl)nc(N(C)C(=O)Nc4c(Cl)c(OC)c(Cl)c(OC)c4Cl)n3)cc2)CC1 , the logged Viability (% of control cells) PLC5 (5 uM) Mean turned out to be 45.0 % of control cells

Turning to the following molecule.
So for CCN1CCN(c2ccc(Nc3ncnc(N(C)C(=O)Nc4c(Cl)c(OC)c(Cl)c(OC)c4Cl)n3)cc2)CC1 , the logged Viability (% of control cells) PLC5 (5 uM) Mean turned out to be 20.6 % of control cells

* * *

assayed-target: UniProt:Q9BXA7
Sequence (Q9BXA7 1-367): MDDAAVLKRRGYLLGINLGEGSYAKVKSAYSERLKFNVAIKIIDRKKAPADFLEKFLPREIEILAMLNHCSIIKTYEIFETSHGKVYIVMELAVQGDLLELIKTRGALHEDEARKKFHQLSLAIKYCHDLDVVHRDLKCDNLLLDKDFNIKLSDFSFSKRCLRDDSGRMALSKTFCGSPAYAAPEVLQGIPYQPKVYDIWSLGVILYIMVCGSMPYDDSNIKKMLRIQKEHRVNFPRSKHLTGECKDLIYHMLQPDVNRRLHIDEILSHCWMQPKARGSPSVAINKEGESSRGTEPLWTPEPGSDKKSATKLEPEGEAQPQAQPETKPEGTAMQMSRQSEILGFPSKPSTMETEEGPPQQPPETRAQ
reported-metric: Kd

The compound CCN1CCN(c2ccc(Nc3ncnc(N(C)C(=O)Nc4c(Cl)c(OC)c(Cl)c(OC)c4Cl)n3)cc2)CC1 , tested on UniProt:Q9BXA7, showed Kd of > 10 µM

* * *

Viability (% of control cells) Hep3B (5 uM) Mean reference
System: Hep3B
test-name: MTT assay, cell viability
Type: cell-based
reported-conditions: 5 uM, 72 hours

So for CCN1CCN(c2ccc(Nc3ncnc(N(C)C(=O)Nc4c(Cl)c(OC)c(Cl)c(OC)c4Cl)n3)cc2)CC1 , the logged Viability (% of control cells) Hep3B (5 uM) Mean turned out to be 66.2 % of control cells

So for CCN1CCN(c2ccc(Nc3cc(N(C)C(=O)Nc4c(Cl)c(OC)c(Cl)c(OC)c4Cl)nc(-c4ccccc4)n3)cc2)CC1 , the logged Viability (% of control cells) Hep3B (5 uM) Mean turned out to be 94.3 % of control cells

So for CCN1CCN(c2ccc(-c3cc(N(C)C(=O)Nc4c(Cl)c(OC)c(Cl)c(OC)c4Cl)ncn3)cc2)CC1 , the logged Viability (% of control cells) Hep3B (5 uM) Mean turned out to be 96.3 % of control cells

So for COc1c(Cl)c(NC(=O)N(C)c2cc(-c3ccc(F)cc3)ncn2)c(Cl)c(OC)c1Cl , the logged Viability (% of control cells) Hep3B (5 uM) Mean turned out to be 72.8 % of control cells

So for COc1ccc(-c2cc(N(C)C(=O)Nc3c(Cl)c(OC)c(Cl)c(OC)c3Cl)ncn2)cc1 , the logged Viability (% of control cells) Hep3B (5 uM) Mean turned out to be 93.6 % of control cells

So for COc1c(Cl)c(NC(=O)N(C)c2cc(-c3ccc(Cl)cc3)ncn2)c(Cl)c(OC)c1Cl , the logged Viability (% of control cells) Hep3B (5 uM) Mean turned out to be 54.3 % of control cells

So for CCN1CCN(c2ccc(Nc3cc(N(C)C(=O)Nc4c(Cl)c(OC)c(Cl)c(OC)c4Cl)ncn3)cc2)CC1 , the logged Viability (% of control cells) Hep3B (5 uM) Mean turned out to be 47.1 % of control cells

Turning to the following compound.
So for CCN1CCN(c2ccc(Nc3nc(Cl)nc(N(C)C(=O)Nc4c(Cl)c(OC)c(Cl)c(OC)c4Cl)n3)cc2)CC1 , the logged Viability (% of control cells) Hep3B (5 uM) Mean turned out to be 43.3 % of control cells

* * *

Test system: RT-112
test-name: MTT assay, cell viability
Assay type: cell-based
reported-conditions: Homo sapiens; RT-112, Bladder, 72 hours; read-out: IC50 (μM, Mean ± SD)
reported-metric: IC50
Give your result as the value with the unit written after it.

So for CCN1CCN(c2ccc(Nc3cc(N(C)C(=O)Nc4c(Cl)c(OC)cc(OC)c4Cl)ncn3)cc2)CC1 , the logged IC50 turned out to be 1.7 µM

* * *

assayed-target: FGFR3(V555M) (Homo sapiens, UniProt P22607, V555M)
Sequence (P22607 23-806 V555M): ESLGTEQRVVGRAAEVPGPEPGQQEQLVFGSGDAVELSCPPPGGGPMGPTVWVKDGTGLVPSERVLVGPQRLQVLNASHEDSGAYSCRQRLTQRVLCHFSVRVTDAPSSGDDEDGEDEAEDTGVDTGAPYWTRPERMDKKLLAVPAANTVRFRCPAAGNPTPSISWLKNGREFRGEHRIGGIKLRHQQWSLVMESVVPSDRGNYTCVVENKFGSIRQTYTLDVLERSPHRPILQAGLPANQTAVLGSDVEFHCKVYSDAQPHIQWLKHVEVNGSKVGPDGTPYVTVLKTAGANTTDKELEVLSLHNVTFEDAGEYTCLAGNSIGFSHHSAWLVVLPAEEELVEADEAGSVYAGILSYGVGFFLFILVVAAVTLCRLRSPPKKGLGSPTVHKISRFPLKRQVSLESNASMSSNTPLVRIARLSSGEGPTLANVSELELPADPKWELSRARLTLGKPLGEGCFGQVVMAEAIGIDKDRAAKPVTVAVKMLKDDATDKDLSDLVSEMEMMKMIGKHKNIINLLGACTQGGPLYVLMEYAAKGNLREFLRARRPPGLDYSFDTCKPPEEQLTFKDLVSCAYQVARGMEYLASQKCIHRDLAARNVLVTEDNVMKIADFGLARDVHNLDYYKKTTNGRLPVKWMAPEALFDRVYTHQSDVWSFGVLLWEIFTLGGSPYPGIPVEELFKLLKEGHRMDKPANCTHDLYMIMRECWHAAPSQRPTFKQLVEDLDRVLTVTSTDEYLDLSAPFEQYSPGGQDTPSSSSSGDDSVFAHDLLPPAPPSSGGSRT
test-name: Kinase binding assay (Kd), mutant FGFR3
reported-metric: Kd

So for CCN1CCN(c2ccc(Nc3ncnc(N(C)C(=O)Nc4c(Cl)c(OC)c(Cl)c(OC)c4Cl)n3)cc2)CC1 , the logged Kd turned out to be > 10 µM

* * *

Test system: RT-112
test-name: MTT assay, cell viability
Assay type: cell-based
reported-conditions: RT-112, 10 uM, 72 hours
reported-metric: Viability (% of control cells) RT-112 (10 uM) Mean

// below: answered compounds
So for COc1c(Cl)c(NC(=O)N(C)c2cc(-c3ccc(F)cc3)ncn2)c(Cl)c(OC)c1Cl , the logged Viability (% of control cells) RT-112 (10 uM) Mean turned out to be 44.4 % of control cells

So for COc1c(Cl)c(NC(=O)N(C)c2cc(-c3ccc(Cl)cc3)ncn2)c(Cl)c(OC)c1Cl , the logged Viability (% of control cells) RT-112 (10 uM) Mean turned out to be 34.8 % of control cells

So for COc1c(Cl)c(NC(=O)N(C)c2cc(-c3cccc(C#N)c3)ncn2)c(Cl)c(OC)c1Cl , the logged Viability (% of control cells) RT-112 (10 uM) Mean turned out to be 75.0 % of control cells

Turning to the following compound.
So for COc1c(Cl)c(NC(=O)N(C)c2cc(-c3ccncc3)ncn2)c(Cl)c(OC)c1Cl , the logged Viability (% of control cells) RT-112 (10 uM) Mean turned out to be 89.3 % of control cells
